What PBM E-score was measured for each of the following?
Molecular target: Nrg2 (UniProt P38082)
Sequence: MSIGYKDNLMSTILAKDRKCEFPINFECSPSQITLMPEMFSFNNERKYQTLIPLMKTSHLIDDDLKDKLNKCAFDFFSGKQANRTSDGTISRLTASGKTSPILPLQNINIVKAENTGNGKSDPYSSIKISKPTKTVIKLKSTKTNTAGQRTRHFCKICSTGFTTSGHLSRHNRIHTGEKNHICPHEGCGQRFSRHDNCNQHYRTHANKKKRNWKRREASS
Experiment: PBM E-score (8-mer binding enrichment) (E-score (-0.5 to 0.5)); higher = stronger / more preferred TF binding
Settings: protein concentration: 100 nM; construct: GST-full length
The full ranking holds about 33,000 sequences; the median of “E-score (-0.5 to 0.5)” is about -8e-05, and the highest 2% start at about 0.23. The list comes from a sample in which the highest values are over-represented; it also holds close analogues and randomly drawn sequences.
Give bare numbers.

Worked cases, answers included:
CGCACAAG    0.0299
CAAATATA    0.03

Okay, next one:
Can you share its PBM E-score? I mean this sequence: GCAACCTA
0.0294

----------
Molecular target: Nrg2 (UniProt P38082)
Sequence: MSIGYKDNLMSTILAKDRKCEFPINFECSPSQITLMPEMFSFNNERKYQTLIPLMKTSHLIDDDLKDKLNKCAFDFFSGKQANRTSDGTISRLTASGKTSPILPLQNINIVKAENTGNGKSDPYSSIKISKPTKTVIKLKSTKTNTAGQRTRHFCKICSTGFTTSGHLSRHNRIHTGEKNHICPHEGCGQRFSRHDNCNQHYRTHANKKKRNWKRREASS
Test: PBM E-score (8-mer binding enrichment) (E-score (-0.5 to 0.5)); higher = stronger / more preferred TF binding
Conditions: protein concentration: 100 nM; construct: GST-full length
Over roughly 33,000 sequences, “E-score (-0.5 to 0.5)” has its median near -8e-05; the highest 2% begin near 0.23. The list comes from a sample in which the highest values are over-represented; it also holds close analogues and randomly drawn sequences.
What PBM E-score was measured for each of the following?
One number for each entry.

AAACTATT    -0.0651
GCCGCATA    0.231
CTACTATA    0.143
ACCAACTC    -0.0268
CCCGCAAG    -0.15
CCCAACTA    0.174
GGTAGACC    -0.00427
CGAAGACC    0.0649
CCGGGCGA    -0.0266
AGCCAGCG    -0.0673

Consider the following items and state reported PBM E-score for each.
1. CAGCGCCG
2. GTTAGGCA

-0.09
-0.146

----------
Biological target: Nrg2 (UniProt P38082)
Sequence: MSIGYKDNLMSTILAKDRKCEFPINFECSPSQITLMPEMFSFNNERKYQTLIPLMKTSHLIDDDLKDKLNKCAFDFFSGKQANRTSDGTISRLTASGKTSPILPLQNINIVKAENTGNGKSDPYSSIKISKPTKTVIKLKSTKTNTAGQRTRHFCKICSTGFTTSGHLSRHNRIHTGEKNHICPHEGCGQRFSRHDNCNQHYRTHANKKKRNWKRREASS
Experiment: PBM E-score (8-mer binding enrichment) (E-score (-0.5 to 0.5)); higher = stronger / more preferred TF binding
Details: protein concentration: 100 nM; construct: GST-full length
Whole data set: some 33,000 sequences, median “E-score (-0.5 to 0.5)” near -8e-05, cut for the highest 2% near 0.23. Many of the other results were omitted from the sample, so the highest values are more common in it than they were.
The class of a record is decided solely by its measured PBM E-score; consult bottom = under 0.001, middle = from 0.001 up to 0.1, top = 0.1 and over

For orientation, consider the following solved cases.
AGTAAGAG    bottom
AGGGGTCA    top
ACCTCACT    bottom
CCAGTTTC    middle

Entry CGGAGATA belongs to which category?
middle

Entry CAGGGTCC belongs to which category?
top

Entry ATTGTTTG belongs to which category?
top

Entry ATGGGTCC belongs to which category?
middle

Entry CAAGGTCG belongs to which category?
middle

----------
What PBM E-score was measured for each of the following?
Biological target: Nrg2 (UniProt P38082)
Sequence: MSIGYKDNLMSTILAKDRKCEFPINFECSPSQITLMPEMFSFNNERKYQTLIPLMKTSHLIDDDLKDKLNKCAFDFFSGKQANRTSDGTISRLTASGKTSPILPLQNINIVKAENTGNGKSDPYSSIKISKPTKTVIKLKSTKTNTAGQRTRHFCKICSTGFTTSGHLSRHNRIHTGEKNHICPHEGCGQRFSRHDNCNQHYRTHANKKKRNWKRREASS
Assay: PBM E-score (8-mer binding enrichment) (E-score (-0.5 to 0.5)); higher = stronger / more preferred TF binding
Conditions: protein concentration: 100 nM; construct: GST-full length
Over roughly 33,000 sequences, “E-score (-0.5 to 0.5)” has its median near -8e-05; the highest 2% begin near 0.23. The list comes from a sample in which the highest values are over-represented; it also holds close analogues and randomly drawn sequences.
Give bare numbers.

Worked cases, answers included:
AGTATGAC    0.0675
AGTATGAT    0.223
GAGAAAGC    0.0912
GTCGGAAA    0.234
ATTGGCCA    0.171
ATAGTCGG    -0.122

Consider the following items and state reported PBM E-score for each.
1. CTGGGTCC
2. GCGAAACA

-0.288
0.0688

Consider the following items and state reported PBM E-score for each.
1. CTTAGTCA
2. ACAAGATA
3. AGACAGCT
4. AAGTACTC
5. AACTCAAG
6. CATGTTGC

-0.0736
0.103
0.12
-0.0318
-0.0395
-0.0978

Consider the following items and state reported PBM E-score for each.
1. ATGATCTC
2. GGCTTCTA
3. ACCACAAT

1. 0.087
2. -0.075
3. -0.0522

----------
Biological target: Nrg2 (UniProt P38082)
Sequence: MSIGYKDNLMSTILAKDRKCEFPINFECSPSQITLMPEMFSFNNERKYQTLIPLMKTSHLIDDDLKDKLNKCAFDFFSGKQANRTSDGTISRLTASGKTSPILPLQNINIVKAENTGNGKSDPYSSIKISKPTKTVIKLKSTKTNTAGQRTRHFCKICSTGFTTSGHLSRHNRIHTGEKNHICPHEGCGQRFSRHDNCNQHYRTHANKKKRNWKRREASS
Test: PBM E-score (8-mer binding enrichment) (E-score (-0.5 to 0.5)); higher = stronger / more preferred TF binding
Details: protein concentration: 100 nM; construct: GST-full length
In all, about 33,000 sequences were measured (“E-score (-0.5 to 0.5)”: median about -8e-05, highest 2% from about 0.23 on). The sample holds the highest values, similar sequences and a random draw of the others, so the mix is not that of the screen.
readoutLabel: PBM E-score
Answers are plain numbers.

Worked cases, answers included:
CTCCCTGA    0.0641
GCAATACA    0.298
ACCTACAT    0.00858
ATCGTGAA    -0.0316
CAGACGAA    0.252
CGCGCGTA    0.133
ATCCCTCG    0.0848
ACCCAGGG    0.0967
AGCTTGTA    -0.00311
CGCGCGGC    0.296

Consider the following items and state reported PBM E-score for each.
1. CATGGCCC
2. AACGCGGA
3. AGCAGCCA
4. AGTTCGAG
5. GACTGTTA
6. CCTTGCAG
7. GAGACGAA
8. CAGACGAC

[-0.066, 0.0806, 0.0226, 0.223, -0.0515, -0.0165, -0.0342, -0.0246]

Consider the following items and state reported PBM E-score for each.
1. GATTGGCA
2. GTCCCTTA
3. GCCTGGTA
4. AGGTAGAT
5. CCCGCGGG
6. CCTCCTCC
7. CGCGCGGA
8. GAACGCTC

1: -0.0954; 2: 0.288; 3: 0.0618; 4: -0.104; 5: 0.278; 6: -0.283; 7: 0.227; 8: -0.107

Consider the following items and state reported PBM E-score for each.
1. GCAATAAC
2. AAAGTTGG
3. CGGGTTTA
4. CGGGTGCA
5. ACATATAA
6. CACCTCCC
7. ATCGCGAT

1: 0.0808; 2: 0.132; 3: 0.104; 4: -0.0669; 5: 0.211; 6: -0.294; 7: 0.271

----------
Molecular target: Nrg2 (UniProt P38082)
Sequence: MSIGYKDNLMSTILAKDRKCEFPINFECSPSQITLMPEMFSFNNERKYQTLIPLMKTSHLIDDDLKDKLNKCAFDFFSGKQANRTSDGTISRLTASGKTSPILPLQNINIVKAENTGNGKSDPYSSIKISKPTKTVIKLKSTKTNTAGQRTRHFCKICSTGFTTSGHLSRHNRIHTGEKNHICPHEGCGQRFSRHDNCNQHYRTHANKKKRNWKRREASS
Assay: PBM E-score (8-mer binding enrichment) (E-score (-0.5 to 0.5)); higher = stronger / more preferred TF binding
Details: protein concentration: 100 nM; construct: GST-full length
In all, about 33,000 sequences were measured (“E-score (-0.5 to 0.5)”: median about -8e-05, highest 2% from about 0.23 on). The list comes from a sample in which the highest values are over-represented; it also holds close analogues and randomly drawn sequences.
The class of a record is decided solely by its measured PBM E-score; consult low (below -0.04), moderate (-0.04 to below 0.1), high (0.1 or more)

AACAATAT    high
TCGAAACA    high
TCGAACGA    moderate

Entry CGGCTTGA belongs to which category?
low

Entry AACAATAG belongs to which category?
low

Entry AAGGTTTG belongs to which category?
moderate

Entry ACGAAACA belongs to which category?
moderate

Entry ACGAACAA belongs to which category?
high

Entry TGCCCACA belongs to which category?
low

Entry AATAAATG belongs to which category?
high

Entry AACACTAT belongs to which category?
high

Entry AATAAAGG belongs to which category?
low

Entry ACTCTGCC belongs to which category?
low

Entry GATAAAAA belongs to which category?
moderate

Entry CGACCAAA belongs to which category?
high

Attribution: the supplement of paper PMC3334620
